- SYSTEM_UNDER_TEST: human Src enzyme (Homo sapiens, UniProt P12931)
- Construct: purchased Carna Biosciences, Inc. 08-173
- Sequence (P12931 whole entry): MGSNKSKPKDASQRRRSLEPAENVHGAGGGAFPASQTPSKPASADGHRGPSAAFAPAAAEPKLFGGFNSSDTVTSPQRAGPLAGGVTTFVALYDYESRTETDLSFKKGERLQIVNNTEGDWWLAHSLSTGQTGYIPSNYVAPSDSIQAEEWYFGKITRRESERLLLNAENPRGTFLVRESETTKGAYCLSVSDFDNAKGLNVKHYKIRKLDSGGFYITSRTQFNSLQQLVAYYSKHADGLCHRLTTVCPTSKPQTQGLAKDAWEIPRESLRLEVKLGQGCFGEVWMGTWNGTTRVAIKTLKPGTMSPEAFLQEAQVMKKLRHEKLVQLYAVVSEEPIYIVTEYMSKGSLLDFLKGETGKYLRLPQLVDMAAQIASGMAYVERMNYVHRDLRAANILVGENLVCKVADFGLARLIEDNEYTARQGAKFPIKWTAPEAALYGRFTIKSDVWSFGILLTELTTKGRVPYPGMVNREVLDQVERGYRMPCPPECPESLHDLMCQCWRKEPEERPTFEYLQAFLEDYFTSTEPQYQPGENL
- TEST_DESCRIPTION: Src enzyme inhibitory activity (time-resolved fluorometry, biotinylated peptide phosphorylation)
- Type: biochemical
- CONDITION_SUMMARY: read-out: SRC_IC50
log10 IC50 by entry:
Answers are given as log10 of IC50 in nM.

>>> recorded_number("Cc1cc(Oc2ccccc2F)cc(C)c1-n1ncc(C(=O)c2cc3cc(F)c(NS(=O)(=O)CCCF)cc3[nH]2)c1N")
2.45
>>> recorded_number("Cc1cc(Oc2ccccc2F)ccc1-n1ncc(C(=O)c2cc3cc(F)c(NS(=O)(=O)C4CCOCC4)cc3[nH]2)c1N")
1.38
>>> recorded_number("Cc1cc(Oc2c(F)cccc2F)ncc1-n1ncc(C(=O)c2cc3cc(OC(F)F)c(N)cc3[nH]2)c1N")
1.40
>>> recorded_number("Nc1c(C(=O)c2cc3cc(F)c(NS(=O)(=O)CCCF)cc3[nH]2)cnn1-c1c(F)cc(Oc2cccc(F)c2F)cc1F")
2.26
>>> recorded_number("Cc1cc(-n2ncc(C(=O)c3cc4cc(OC5CCN(C(C)C)CC5)c(C5CCN(S(C)(=O)=O)CC5)cc4[nH]3)c2N)ccc1Oc1ccccc1F")
1.98

Query: I am curious: what log10 IC50 value has been reported for CCOc1cc2cc(C(=O)c3cnn(-c4ccc(Oc5ccccc5F)cc4C)c3N)[nH]c2cc1C1CCN(S(C)(=O)=O)CC1 ?
Reply: 1.62

Query: I am curious: what log10 IC50 value has been reported for CC(C)N1CCC(c2cc3[nH]c(C(=O)c4cnn(-c5ccc(Oc6cccc(F)c6)cc5)c4N)cc3cc2F)CC1 ?
Reply: 1.63

Query: I am curious: what log10 IC50 value has been reported for Cc1cc(Oc2ccccc2F)ccc1-n1ncc(C(=O)c2cc3cc(F)c(NC4CN(S(C)(=O)=O)C4)cc3[nH]2)c1N ?
Reply: 1.04

Query: I am curious: what log10 IC50 value has been reported for CC(C)N1CCC(c2cc3cc(C(=O)c4cnn(-c5ccc(Oc6cccc(Cl)c6)cc5F)c4N)[nH]c3cc2F)CC1 ?
Reply: 1.41

Query: I am curious: what log10 IC50 value has been reported for Cc1cc2cc(C(=O)c3cnn(-c4cnc(Oc5c(F)cccc5F)cc4C)c3N)[nH]c2cc1NS(=O)(=O)C1CCCCC1 ?
Reply: 2.68

Query: I am curious: what log10 IC50 value has been reported for Cc1cc2cc(C(=O)c3cnn(-c4ccc(Oc5ccccc5F)cc4C)c3N)[nH]c2cc1C1CCN(S(C)(=O)=O)CC1 ?
Reply: 0.93

Query: I am curious: what log10 IC50 value has been reported for Cc1cc(Oc2ccccc2F)ccc1-n1ncc(C(=O)c2cc3cc(F)c(N4CCOCC4)cc3[nH]2)c1N ?
Reply: 1.18

Query: I am curious: what log10 IC50 value has been reported for Cc1cc(Oc2c(F)cccc2F)ncc1-n1ncc(C(=O)c2cc3cc(OCC(F)F)c(NS(=O)(=O)Cc4ccccc4)cc3[nH]2)c1N ?
Reply: 2.18

Query: I am curious: what log10 IC50 value has been reported for Cc1cc(-n2ncc(C(=O)c3cc4cc(OCC(F)F)c(N5CCC(N6CCOCC6)CC5)cc4[nH]3)c2N)ccc1Oc1ccccc1F ?
Reply: 2.23

Query: I am curious: what log10 IC50 value has been reported for Cc1cc(Oc2ccccc2F)ccc1-n1ncc(C(=O)c2cc3cc(F)c(N4CC(C)(C)NS4(=O)=O)cc3[nH]2)c1N ?
Reply: 1.70

Query: I am curious: what log10 IC50 value has been reported for Cc1cc2cc(C(=O)c3cnn(-c4cnc(Oc5c(F)cccc5F)cc4C)c3N)[nH]c2cc1NS(=O)(=O)C1CCCC1 ?
Reply: 2.70
